All figures here come from patent US20200113923A1.

Tested on: EOL-1 cells
protocol details: EOL-1 cell growth and viability assay (Guava Viacount, 11 days)
Format: cell-based, Human
test parameters: Homo sapiens, EOL1, 264 h; concentration-dependence curves at day 11
Procedure: Human leukemia cell line EOL-1 (Catalog # ACC-386) was purchased from DSMZ and were grown in Roswell Park Memorial Institute medium (RPMI) with 10% Fetal Bovine Serum (FBS). […] Exponentially growing EOL-1 cells were plated in 96-well plates at a density of 3×10^4 viable cells/well. […] Viable cell number was determined every 3-4 days for 11 days using the Guava Viacount assay (Millipore #4000-0040) and analyzed on a Guava EasyCyte Plus instrument according to the manufacturer's protocol. […]
reported metric: IC50 (nM)
Record the value in nM, omitting the unit from your answer.

query: Specify measured IC50 for CC(C)N(C[C@H]1O[C@@H](n2cnc3c(N)ncnc32)[C@H](O)[C@@H]1O)[C@H]1C[C@@H](CCc2nc3cc(C(C)(C)C)ccc3[nH]2)C1 [Compound A2] .
result: 2
